# experimentSummary: chemical genetic growth profiling, strain panel (AID 1159580);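 also: tested at 20 µM; growth read once vehicle control cultures reached saturation at 30 °C; 1 = growth at the plate median or of vehicle wells; lower values mean less growth of the strain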
# conditions: S. cerevisiae deletion strains, growth OD, locus YNL153C, strain GIM3
About 2,000 (36%) of roughly 5,500 compounds were called active. Roughly 18% stayed inconclusive and do not appear here. Rule as the data show it: active = normalized growth mostly below about 0.91 (no sharp cut-off); inconclusive = no clear call, values can overlap the other calls; inactive = mostly above about 0.92. Some of the results follow.
Bench note: report the call from active, inactive

INSERT INTO measurements (compound, qualitativelabel) VALUES
  ('CC(=O)OC1CCC2(C)C3CC(=O)C4(C)C(CC5OC6(CCC(C)CO6)[C@@H](C)C54)C3CC[C@H]2C1 (some centres undefined)', 'inactive'),
  ('CC(=O)OCC(=O)[C@@]1(O)CCC2C3CC[C@@H]4C[C@H](OC(C)=O)CC[C@]4(C)C3C(=O)C[C@@]21C (some centres undefined)', 'inactive'),
  ('C#CC1(O)CCC2C3CCC4=CC(=O)CCC4(C)C3CCC21C (centres undefined)', 'inactive'),
  ('CCOC(=O)c1cnc2nc(SC)nn2c1N', 'inactive'),
  ('O=C(O)c1cc(=O)c2cccc(O)c2[nH]1', 'inactive');

Ask: Tell me the assay call for `CC(=O)Oc1cccc(C(=O)O)c1OC(C)=O` please.
Result: inactive

====

# experimentSummary: chemical genetic growth profiling, strain panel (AID 1159580);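 also: tested at 20 µM; growth read once vehicle control cultures reached saturation at 30 °C; 1 = growth at the plate median or of vehicle wells; lower values mean less growth of the strain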
# conditions: S. cerevisiae deletion strains, growth OD, locus YDR477W, strain SNF1, hits give low values
The whole screen tested about 5,500 compounds, of which about 2,000 (36%) were called active. Roughly 18% stayed inconclusive and do not appear here. This is one part of the list.
normalized growth: recorded values
Reply with the value as a number alone.

Here's what some known entries look like.
INSERT INTO assay_data (compound, parameter, reported) VALUES
  ('COc1ccc(C2CC(c3ccc(C)cc3C)=NN2C(C)=O)cc1 (stereo not drawn)', 'normalized growth', 0.919),
  ('S=C(N/N=C\c1cccs1)NC1CC2CCC1C2 (stereo not drawn)', 'normalized growth', 0.91);

Shift focus to the following entry.
Ask: State its normalized growth: `CC(C)(C)C(=O)c1sc2sc(C(=O)C(C)(C)C)c(N)c2c1N`
Result: 0.875

====

# experimentSummary: chemical genetic growth profiling, strain panel (AID 1159580);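 also: tested at 20 µM; growth read once vehicle control cultures reached saturation at 30 °C; 1 = growth at the plate median or of vehicle wells; lower values mean less growth of the strain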
# conditions: S. cerevisiae deletion strains, growth OD, locus YJL129C, strain trk1, hits give low values
About 2,000 (36%) of roughly 5,500 compounds were called active. About 18% were inconclusive and are not listed. The list shows a part of the results.
// assign Condition met if normalized growth falls strictly below 1, else Condition not met (ties count as Condition not met)

Examples from the recorded data:
INSERT INTO measurements (compound, qualitativelabel) VALUES
  ('O=c1oc2c(O)c(O)cc3c(=O)oc4c(O)c(O)cc1c4c23', 'Condition met'),
  ('COc1cc2c(cc1OC)[C@@H]1C(=O)c3ccc4c(c3O[C@@H]1CO2)CC(C(C)C)O4 (stereo partly drawn)', 'Condition met'),
  ('C1CCC(C(CC2CCCCN2)C2CCCCC2)CC1 (stereo not drawn)', 'Condition met'),
  ('NC(=O)NO', 'Condition not met'),
  ('COc1cc(NS(=O)(=O)c2ccc(N)cc2)ncn1', 'Condition met');

Ask: Here's an entry: C=C(C)[C@@H]1CC[C@]2(CO)CC[C@]3(C)[C@H](CCC4[C@@]5(C)CC[C@H](O)C(C)(C)C5CC[C@]43C)C12 (stereo partly drawn) . Is its normalized growth below 1?
Result: Condition not met

Ask: is_below(normalized growth, 1) for CC(=O)CC1CCCCN1 (stereo not drawn) ?
Result: Condition not met

Ask: normalized growth strictly < 1 for this compound? `CC(=O)[O][Hg][c]1ccccc1`
Result: Condition met
